Tested on: rodent lifetime carcinogenesis bioassay, tumor incidence TD50
Assay: carcinogenic potency in animals, long-term in vivo studies, CPDB compilation (AID 1745844)
Settings: rat; strain Fischer 344; females; in drinking water; site: liver; lesion: several types; types named in the paper; dosed 78 weeks; study length 104 weeks
The source made the active and inactive calls. How the calls were made is not given here.
measurement_type: TD50

- ClCCl: 1540 mg/kg/day (inactive)

----------
Tested on: rodent lifetime carcinogenesis bioassay, tumor incidence TD50
Assay: carcinogenic potency in animals, long-term in vivo studies, CPDB compilation (AID 1745844)
Details: hamster; strain Syrian Golden; females; in feed; site: forestomach; lesion: several types; types named in the paper; dosed 94 weeks; study length 94 weeks
measurement_type: TD50 (mg/kg/day)

* NC(=O)C(=Cc1ccc([N+](=O)[O-])o1)c1ccco1 | 59.1

----------
Tested on: rodent lifetime carcinogenesis bioassay, tumor incidence TD50
Assay: carcinogenic potency in animals, long-term in vivo studies, CPDB compilation (AID 1745844)
Settings: rat; strain MRC; males; by gavage; site: pharynx; lesion: several types; types named in the paper; dosed 51 weeks; study length 58 weeks
measurement_type: TD50

- CC(=O)CN(C)N=O: 0.023 mg/kg/day

----------
System: rodent lifetime carcinogenesis bioassay, tumor incidence TD50
Experiment: carcinogenic potency in animals, long-term in vivo studies, CPDB compilation (AID 1745844)
Conditions: rat; strain Charles River CD (Sprague-Dawley); females; by gavage; site: liver; lesion: hepatocellular carcinoma; dosed 104 weeks; study length 104 weeks
measurement_type: TD50 (mg/kg/day)

• CC(C)n1c(/C=C/[C@H](O)C[C@H](O)CC(=O)O)c(-c2ccc(F)cc2)c2ccccc21 = 916

----------
System: rodent lifetime carcinogenesis bioassay, tumor incidence TD50
Assay: carcinogenic potency in animals, long-term in vivo studies, CPDB compilation (AID 1745844)
Conditions: rat; strain Fischer 344; males; in feed; site: pancreas; lesion: acinar-cell carcinoma; dosed 108 weeks; study length 108 weeks
measurement_type: TD50

- CC(C)(Oc1ccc(C2CCCc3ccccc32)cc1)C(=O)O (stereo unspecified): 428 mg/kg/day

----------
Tested on: rodent lifetime carcinogenesis bioassay, tumor incidence TD50
Assay: carcinogenic potency in animals, long-term in vivo studies, CPDB compilation (AID 1745844)
Conditions: rat; strain F344/DuCrj; females; in drinking water; site: any site (literature study); lesion: one or several types; types not named; dosed 104 weeks; study length 112 weeks
Active and inactive are the calls of the source. The rule behind the calls is not given here.
measurement_type: TD50

• [Cl][Fe]([Cl])[Cl] = 505 mg/kg/day (inactive)

----------
System: rodent lifetime carcinogenesis bioassay, tumor incidence TD50
Assay: carcinogenic potency in animals, long-term in vivo studies, CPDB compilation (AID 1745844)
Conditions: mouse; strain B6C3F1; females; by gavage; site: lung; lesion: alveolar/bronchiolar adenoma + alveolar/bronchiolar carcinoma; dosed 99 weeks; study length 104 weeks
measurement_type: TD50

- ClCc1ccccn1: 2170 mg/kg/day

----------
Test system: rodent lifetime carcinogenesis bioassay, tumor incidence TD50
Test: carcinogenic potency in animals, long-term in vivo studies, CPDB compilation (AID 1745844)
Settings: monkey; strain Rhesus [Macaca mulatta]; both sexes; in feed; site: epiglottis; lesion: squamous-cell carcinoma; dosed 928 weeks; study length 1139 weeks
measurement_type: TD50 (mg/kg/day)

* CN(N=O)C(N)=O | 42.8

----------
System: rodent lifetime carcinogenesis bioassay, tumor incidence TD50
Assay: carcinogenic potency in animals, long-term in vivo studies, CPDB compilation (AID 1745844)
Conditions: mouse; strain C57BL/6JfC3Hf/Nctr x BALB/cStCrlfC3Hf/Nctr inter se; females; in drinking water; site: liver; lesion: hepatocellular adenoma; dosed 80 weeks; study length 80 weeks
measurement_type: TD50

* Nc1ccc(-c2ccc(N)cc2)cc1 | 78.7 mg/kg/day
